Target Of Assay: human TAS1R2-WT/TAS1R3-A735T (Homo sapiens, UniProt Q7RTX0+Q8TE23, A735T)
Construct: expressed in transfected cells; host or cells: HEK293T stably expressing Gα16gust44
Assay Method Text: Calcium mobilisation assay, TAS1R2-WT with TAS1R3 variant A735T
Format: cell-based
Applied Conditions: maximal signal amplitude
Outcome Measure: Max ΔF/F0
Answer as a number with no unit attached.

Data request: # input compound: "CC1=CC(=O)NS(=O)(=O)O1" ; wanted: its Max ΔF/F0
Data returned: 0.47

Data request: # input compound: COc1ccc(CCC(=O)c2c(O)cc(O[C@@H]3O[C@H](CO)[C@@H](O)[C@H](O)[C@H]3O[C@@H]3O[C@@H](C)[C@H](O)[C@@H](O)[C@H]3O)cc2O)cc1O [NHDC, neohesperidin dihydrochalcone] ; wanted: its Max ΔF/F0
Data returned: 1.00

Data request: # input compound: "COC(=O)[C@H](Cc1ccccc1)NC(=O)[C@H](CC(=O)O)NCCC(C)(C)C" ; wanted: its Max ΔF/F0
Data returned: 0.61

###

Target Of Assay: human TAS1R2-I191V/TAS1R3-WT (Homo sapiens, UniProt Q7RTX0+Q8TE23, I191V)
Construct: expressed in transfected cells; host or cells: HEK293T-Gα16gust44
Sequence (Q8TE23 20-839 I191V): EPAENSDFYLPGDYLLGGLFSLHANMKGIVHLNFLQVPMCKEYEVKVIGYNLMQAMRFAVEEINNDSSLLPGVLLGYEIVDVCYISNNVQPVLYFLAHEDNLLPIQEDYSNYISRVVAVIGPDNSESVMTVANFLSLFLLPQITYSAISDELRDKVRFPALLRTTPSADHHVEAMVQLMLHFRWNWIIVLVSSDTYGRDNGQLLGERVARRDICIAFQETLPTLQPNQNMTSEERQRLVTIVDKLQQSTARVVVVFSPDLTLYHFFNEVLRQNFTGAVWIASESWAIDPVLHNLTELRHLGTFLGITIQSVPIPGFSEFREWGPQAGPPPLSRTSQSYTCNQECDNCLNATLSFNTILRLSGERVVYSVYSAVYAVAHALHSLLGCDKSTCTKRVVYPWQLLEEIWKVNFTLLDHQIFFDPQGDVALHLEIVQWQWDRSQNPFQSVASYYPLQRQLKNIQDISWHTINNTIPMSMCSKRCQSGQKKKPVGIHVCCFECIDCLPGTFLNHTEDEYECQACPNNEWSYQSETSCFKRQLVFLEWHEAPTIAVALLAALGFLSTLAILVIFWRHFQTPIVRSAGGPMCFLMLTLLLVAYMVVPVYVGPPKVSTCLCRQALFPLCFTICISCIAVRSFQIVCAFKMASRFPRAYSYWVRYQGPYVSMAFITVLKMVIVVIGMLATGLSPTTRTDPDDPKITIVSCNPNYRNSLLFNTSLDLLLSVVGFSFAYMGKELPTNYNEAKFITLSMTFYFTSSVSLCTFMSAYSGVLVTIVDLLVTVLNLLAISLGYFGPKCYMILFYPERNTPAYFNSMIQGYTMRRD
Sequence (Q7RTX0 21-852): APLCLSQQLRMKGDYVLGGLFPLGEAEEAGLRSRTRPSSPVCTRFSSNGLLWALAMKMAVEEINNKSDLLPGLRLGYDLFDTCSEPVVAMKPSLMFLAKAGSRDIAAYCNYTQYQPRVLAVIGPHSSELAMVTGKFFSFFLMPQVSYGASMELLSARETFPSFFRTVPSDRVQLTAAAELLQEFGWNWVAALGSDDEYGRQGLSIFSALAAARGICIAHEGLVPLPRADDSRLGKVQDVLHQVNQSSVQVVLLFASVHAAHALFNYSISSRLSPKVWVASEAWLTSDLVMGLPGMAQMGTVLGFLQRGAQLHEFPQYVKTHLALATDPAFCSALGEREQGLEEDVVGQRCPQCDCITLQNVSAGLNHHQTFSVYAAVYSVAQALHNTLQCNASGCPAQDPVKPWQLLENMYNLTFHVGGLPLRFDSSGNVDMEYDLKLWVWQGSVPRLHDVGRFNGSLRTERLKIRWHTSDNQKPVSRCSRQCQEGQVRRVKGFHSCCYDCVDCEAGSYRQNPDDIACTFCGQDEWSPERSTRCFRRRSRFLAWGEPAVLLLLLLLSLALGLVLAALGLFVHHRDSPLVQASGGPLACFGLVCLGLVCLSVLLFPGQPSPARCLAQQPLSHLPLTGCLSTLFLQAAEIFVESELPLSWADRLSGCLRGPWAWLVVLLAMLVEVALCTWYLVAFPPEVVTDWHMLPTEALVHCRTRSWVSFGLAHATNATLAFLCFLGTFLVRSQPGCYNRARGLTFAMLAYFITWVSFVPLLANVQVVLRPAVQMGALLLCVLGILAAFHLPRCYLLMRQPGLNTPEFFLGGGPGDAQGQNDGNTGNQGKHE
Assay Method Text: Calcium mobilisation assay, TAS1R2 variant I191V with TAS1R3-WT
Format: cell-based
Applied Conditions: maximal signal amplitude
Outcome Measure: Max ΔF/F0

Data request: # input molecule: C=C1C[C@@]23CC[C@H]4[C@@](C)(CCC[C@@]4(C)C(=O)O[C@@H]4O[C@H](CO)[C@@H](O)[C@H](O[C@@H]5O[C@H](CO)[C@@H](O)[C@H](O)[C@H]5O)[C@H]4O[C@@H]4O[C@H](CO)[C@@H](O)[C@H](O)[C@H]4O)[C@@H]2CC[C@]1(O[C@@H]1O[C@H](CO)[C@@H](O)[C@H](O[C@@H]2O[C@H](CO)[C@@H](O)[C@H](O)[C@H]2O)[C@H]1O[C@@H]1O[C@H](CO)[C@@H](O)[C@H](O)[C@H]1O)C3 [Rebaudioside M, rebaudioside M] ; wanted: its Max ΔF/F0
Data returned: 1.10 ± 0.01

###

Target Of Assay: human TAS1R2-WT/TAS1R3-G367C (Homo sapiens, UniProt Q7RTX0+Q8TE23, G367C)
Construct: expressed in transfected cells; host or cells: HEK293T stably expressing Gα16gust44
Assay Method Text: Calcium mobilisation assay, TAS1R2-WT with TAS1R3 variant G367C
Format: cell-based
So basically: is R1 = Variant EC50/WT EC50 under 2? Then Y. Not under? Then N.

Data request: Lab note: confirm whether the reported R1 = Variant EC50/WT EC50 for this compound is below 2, equality not counting. compound: "C=C(C)[C@@H]1CC=C(/C=N/O)CC1"
Data returned: N

Data request: Lab note: confirm whether the reported R1 = Variant EC50/WT EC50 for this compound is below 2, equality not counting. compound: "COC(=O)[C@H](Cc1ccccc1)NC(=O)[C@H](CC(=O)O)NCCC(C)(C)C"
Data returned: Y

Data request: Lab note: confirm whether the reported R1 = Variant EC50/WT EC50 for this compound is below 2, equality not counting. compound: C=C1C[C@@]23CC[C@H]4[C@@](C)(CCC[C@@]4(C)C(=O)O[C@@H]4O[C@H](CO)[C@@H](O)[C@H](O[C@@H]5O[C@H](CO)[C@@H](O)[C@H](O)[C@H]5O)[C@H]4O[C@@H]4O[C@H](CO)[C@@H](O)[C@H](O)[C@H]4O)[C@@H]2CC[C@]1(O[C@@H]1O[C@H](CO)[C@@H](O)[C@H](O[C@@H]2O[C@H](CO)[C@@H](O)[C@H](O)[C@H]2O)[C@H]1O[C@@H]1O[C@H](CO)[C@@H](O)[C@H](O)[C@H]1O)C3 [Rebaudioside M, rebaudioside M]
Data returned: Y

Data request: Lab note: confirm whether the reported R1 = Variant EC50/WT EC50 for this compound is below 2, equality not counting. compound: "CC1=CC(=O)NS(=O)(=O)O1"
Data returned: Y

Data request: Lab note: confirm whether the reported R1 = Variant EC50/WT EC50 for this compound is below 2, equality not counting. compound: C[C@H](CC[C@@H](O[C@@H]1O[C@H](CO[C@@H]2O[C@H](CO)[C@@H](O)[C@H](O)[C@H]2O)[C@@H](O)[C@H](O)[C@H]1O[C@@H]1O[C@H](CO)[C@@H](O)[C@H](O)[C@H]1O)C(C)(C)O)[C@H]1CC[C@@]2(C)[C@@H]3CC=C4[C@@H](CC[C@H](O[C@@H]5O[C@H](CO[C@@H]6O[C@H](CO)[C@@H](O)[C@H](O)[C@H]6O)[C@@H](O)[C@H](O)[C@H]5O)C4(C)C)[C@]3(C)[C@H](O)C[C@]12C [Mogroside V, mogroside V]
Data returned: N

Data request: Lab note: confirm whether the reported R1 = Variant EC50/WT EC50 for this compound is below 2, equality not counting. compound: COc1ccc(CCC(=O)c2c(O)cc(O[C@@H]3O[C@H](CO)[C@@H](O)[C@H](O)[C@H]3O[C@@H]3O[C@@H](C)[C@H](O)[C@@H](O)[C@H]3O)cc2O)cc1O [NHDC, neohesperidin dihydrochalcone]
Data returned: Y

Data request: Lab note: confirm whether the reported R1 = Variant EC50/WT EC50 for this compound is below 2, equality not counting. compound: "OC[C@H]1O[C@H](O[C@]2(CCl)O[C@H](CCl)[C@@H](O)[C@@H]2O)[C@H](O)[C@@H](O)[C@H]1Cl"
Data returned: Y

Origin of measurements: paper PMC11945486
